This section presents compounds with their documented MTD values.
- experiment: Toxicity / maximum tolerated dosage in mice
- Assay type: in vivo
- setupConditions: mouse, in vivo, ip, single QD day 1 ip, L1210-inoculated BDF1 mice; read-out: Max. tolerated dosage
Response body: numeric value in mg/kg, unit text excluded.

compound: N[S+]([O-])c1ncnc2c1ncn2[C@H]1C[C@H](O)[C@@H](CO)O1 (stereo partly shown) [Compound 15]
unitSymbol: mg/kg
MTD: 104

Consider NSc1nc(N)nc2c1ncn2[C@@H]1O[C@H](CO)[C@@H](O)[C@H]1O [Compound 18] . Its measured MTD is 22

Query Nc1nc(S(N)(=O)=O)c2ncn([C@H]3C[C@H](O)[C@@H](CO)O3)c2n1 [Compound 24] yields MTD of 288

Recorded MTD (compound NSc1nc(N)nc2c1ccn2[C@H]1C[C@H](O)[C@@H](CO)O1 [Compound 38] ): 173

----------
- experiment: Solubility (maximum solubility)
- Type: physicochemical
measurementType: Max. sol. dosage

// known answers, use as guide
compound: NSc1nc(N)nc2c1ccn2[C@H]1C[C@H](O)[C@@H](CO)O1
measurementType: Max. sol. dosage
valueMeasured: 173 mg/kg
--
compound: C[C@H]1O[C@@H](n2cnc3c(S(N)(=O)=O)nc(N)nc32)[C@H](O)[C@@H]1O
measurementType: Max. sol. dosage
valueMeasured: 480 mg/kg
--
compound: Nc1nc(S(N)(=O)=O)c2ncn([C@H]3C[C@H](O)[C@@H](CO)O3)c2n1
measurementType: Max. sol. dosage
valueMeasured: 480 mg/kg
--
compound: NSc1nc(N)nc2c1ncn2[C@H]1C[C@H](O)[C@@H](CO)O1 [Compound 22]
measurementType: Max. sol. dosage
valueMeasured: 173 mg/kg

Documented Max. sol. dosage of NSc1nc(N)nc2c1ncn2[C@@H]1O[C@H](CO)[C@@H](O)[C@H]1O : 22 mg/kg

For record NS(=O)(=O)c1ncnc2c1ncn2[C@H]1C[C@H](O)[C@@H](CO)O1 the listed Max. sol. dosage is 800 mg/kg

Sample NS(=O)(=O)c1ncnc2c1ncn2[C@@H]1O[C@H](CO)[C@@H](O)[C@@H]1O ; Max. sol. dosage observed: 173 mg/kg

compound Nc1nc([S+](N)[O-])c2ncn([C@H]3C[C@H](O)[C@@H](CO)O3)c2n1 (some centres unmarked) , Max. sol. dosage observed: 480 mg/kg

----------
- experiment: Toxicity / maximum tolerated dosage in mice
- Format: in vivo
- setupConditions: mouse, in vivo, ip, NaOH vehicle; single QD day 1 ip, BDF1 mice; read-out: Max. tolerated dosage
measurementType: MTD (mg/kg)
Answer format: numeric, mg/kg implied, no suffix.

Recorded MTD (molecule NSc1nc(N)nc2nc[nH]c12 [Compound 2, 2-Aminopurine-6-sulfenamide] ): 104

Entry source: patent US5026836A
